Parameter T/C: see the listing below.
test system: L1210 leukemia ip in BDF1 mice, survival T/C; test: NCI In Vivo Anticancer Drug Screen. Data for tumor model L1210 Leukemia (intraperitoneal) in B6D2F1 (BDF1) mice; settings: endpoint: mean survival time; dose: 200.0 mg/kg/injection; schedule: Q04DX003 (ip); vehicle: Klucel (hydroxypropylcellulose) (HPC); higher = longer survival
Toxic doses and inconclusive results are not listed.

Please review the entries below; each comes with its answer.
Just so you know, measured T/C for Cc1cc2oc(/C=C/C(=O)c3ccc([N+](=O)[O-])cc3)c(C)c2cc1C came out at 90 % of control

Just so you know, measured T/C for N#C/C(=C\c1ccncc1)c1cccc2ccccc12 came out at 96 % of control

Just so you know, measured T/C for CC1(C)OCC(C(OC(=O)c2ccccc2)C(OC2CCCCO2)C2COC(C)(C)O2)O1 (stereo not given) came out at 96 % of control

Just so you know, measured T/C for CC(C)(C)C1=NN=C(C(C)(C)C)CSC1 came out at 97 % of control

Just so you know, measured T/C for OC(COc1ccccc1)COc1ccccc1 came out at 105 % of control

Further cases:
Just so you know, measured T/C for Nc1cccc(S(=O)(=O)c2cccc(N)c2)c1 came out at 94 % of control

Just so you know, measured T/C for COc1ccc2c(c1)CCC1(C)CC(C)C(=O)C=C21 (stereo not given) came out at 91 % of control

Just so you know, measured T/C for COc1ccc(-c2cnc(=O)[nH]c2N)cc1 came out at 104 % of control

Just so you know, measured T/C for Cn1c(=O)c2[nH]c(Br)nc2n(C)c1=O came out at 111 % of control

Just so you know, measured T/C for NC(=O)CNC(=O)OCc1ccccc1 came out at 105 % of control

Just so you know, measured T/C for CC(=O)Nc1c(Cl)cccc1Cl came out at 108 % of control

Just so you know, measured T/C for O=C(O)c1ccccc1C(=O)Nc1ccc([N+](=O)[O-])cc1Cl came out at 97 % of control

Just so you know, measured T/C for CCCCCCCCCCCCCCCCCCSCCO came out at 102 % of control

----------
test system: L1210 leukemia ip in BDF1 mice, survival T/C; test: NCI In Vivo Anticancer Drug Screen. Data for tumor model L1210 Leukemia (intraperitoneal) in B6D2F1 (BDF1) mice; conditions: endpoint: mean survival time; dose: 200.0 mg/kg/injection; schedule: Q01DX009 (ip); vehicle: saline; higher = longer survival
Inconclusive results and toxic doses are left out.
Parameter T/C: see the listing below.

Please review the entries below; each comes with its answer.
Just so you know, measured T/C for CC(=O)N(CC(=O)OCc1ccccc1)C(C)=O came out at 103 % of control

Just so you know, measured T/C for O=C1N(CO)C2C(N1CO)N(CO)C(=O)N2CO (centres undefined) came out at 113 % of control

Just so you know, measured T/C for CCOC(=O)c1cnc(C)nc1C came out at 100 % of control

Just so you know, measured T/C for O=C(O)CNCc1ccc(Cl)c(Cl)c1 came out at 111 % of control

Just so you know, measured T/C for CCOC(=O)c1ccc(=O)[nH]c1 came out at 96 % of control

Just so you know, measured T/C for NC(=O)C(O)C(O)C(O)C(O)C(N)=O (centres undefined) came out at 93 % of control

Further cases:
Just so you know, measured T/C for O=C(O)CCCSCCSCCCC(=O)O came out at 103 % of control

Just so you know, measured T/C for C[n+]1cccc(C=O)c1 came out at 101 % of control

Just so you know, measured T/C for C#CCOCC1CN(C)C(=O)O1 (centres undefined) came out at 117 % of control

----------
test system: L1210 leukemia ip in BDF1 mice, survival T/C; test: NCI In Vivo Anticancer Drug Screen. Data for tumor model L1210 Leukemia (intraperitoneal) in B6D2F1 (BDF1) mice; conditions: endpoint: mean survival time; dose: 100.0 mg/kg/injection; schedule: Q04DX003 (ip); vehicle: saline with Tween-80; higher = longer survival
Toxic doses and inconclusive results are not listed.
REPORTED_PROPERTY: T/C

Just so you know, measured T/C for O=C1C(Br)=C(Br)C(=O)C1(Br)Br came out at 87 % of control

Just so you know, measured T/C for CC1CCCC(CN=Cc2cc([N+](=O)[O-])ccc2O)[N-]1.CC1CCCC(CN=Cc2cc([N+](=O)[O-])ccc2O)[N-]1.[Ni+2] (configuration not stated) came out at 95 % of control

Just so you know, measured T/C for CCOC(=O)Nc1cccc(OC(=O)NC)c1 came out at 100 % of control

Further cases:
Just so you know, measured T/C for CCOC(=O)C(C(=O)OCC)=C(C)C came out at 100 % of control

Just so you know, measured T/C for CNC(=O)NC1C(O)C(OC)OC2COC(c3ccccc3)OC21 (configuration not stated) came out at 92 % of control

Just so you know, measured T/C for Cc1cccc(C2C(=O)c3ccccc3C2=O)n1 came out at 95 % of control

Just so you know, measured T/C for c1ccc(-c2nnc3oc(-c4ccco4)nn23)cc1 came out at 96 % of control

----------
system: L1210 leukemia ip in BDF1 mice, survival T/C; experiment: NCI In Vivo Anticancer Drug Screen. Data for tumor model L1210 Leukemia (intraperitoneal) in B6D2F1 (BDF1) mice; conditions: endpoint: mean survival time; dose: 100.0 mg/kg/injection; schedule: Q01DX001 (ip); vehicle: saline; higher = longer survival
Inconclusive results and toxic doses are left out.
Parameter T/C: see the listing below.

Please review the entries below; each comes with its answer.
Just so you know, measured T/C for Nc1c(Cl)ncnc1Nc1ccc(C(=O)O)cc1 came out at 98 % of control

Just so you know, measured T/C for Cn1c(=O)c2[nH]c(CCCSSCCCc3nc4c([nH]3)c(=O)n(C)c(=O)n4C)nc2n(C)c1=O came out at 96 % of control

Just so you know, measured T/C for O=c1[nH]nc(CC(Br)c2ccccc2)o1 (stereo not given) came out at 91 % of control

Just so you know, measured T/C for CSc1nc(SC)c2c(ncn2C2OC(CO)C(O)C2O)n1 (stereo not given) came out at 102 % of control

Further cases:
Just so you know, measured T/C for COc1cc(S(=O)(=O)F)ccc1NC(=O)/C=C/c1ccc([N+](=O)[O-])cc1 came out at 103 % of control

----------
system: L1210 leukemia ip in BDF1 mice, survival T/C; test: NCI In Vivo Anticancer Drug Screen. Data for tumor model L1210 Leukemia (intraperitoneal) in B6D2F1 (BDF1) mice; settings: endpoint: mean survival time; dose: 200.0 mg/kg/injection; schedule: Q04DX003 (ip); vehicle: saline with Tween-80; higher = longer survival
Toxic doses and inconclusive results are not listed.
REPORTED_PROPERTY: T/C

Summary line: C=Cc1c(C)c(O)cc2c1CC[C@@H]1C(C)(C)[C@H](O)[C@H](O)C[C@@]21C , L1210 leukemia ip in BDF1 mice, survival T/C, reported T/C = 100 % of control

Further cases:
Summary line: c1ccc2nc(C3CO3)cnc2c1 (stereo not drawn) , L1210 leukemia ip in BDF1 mice, survival T/C, reported T/C = 91 % of control

Summary line: O=C(/C(=N\N=C\c1c(O)ccc2ccccc12)c1ccccc1)c1ccccc1 , L1210 leukemia ip in BDF1 mice, survival T/C, reported T/C = 98 % of control

Summary line: CCCOC(=O)COc1ccccc1 , L1210 leukemia ip in BDF1 mice, survival T/C, reported T/C = 96 % of control

Summary line: CCOC(=O)c1ccc(NC(=O)Nc2ccccc2Cl)cc1 , L1210 leukemia ip in BDF1 mice, survival T/C, reported T/C = 93 % of control

----------
system: L1210 leukemia ip in BDF1 mice, survival T/C; experiment: NCI In Vivo Anticancer Drug Screen. Data for tumor model L1210 Leukemia (intraperitoneal) in B6D2F1 (BDF1) mice; conditions: endpoint: mean survival time; dose: 400.0 mg/kg/injection; schedule: Q04DX003 (ip); vehicle: saline; higher = longer survival
Toxic doses and inconclusive results are not listed.
Parameter T/C: see the listing below.

Just so you know, measured T/C for Nc1nc2c(c(-c3ccc(Cl)cc3)n1)CN(c1ccc(Br)cc1)C2=O came out at 92 % of control

Just so you know, measured T/C for CCC(C(=O)O)C(O)(CC(=O)O)C(=O)O (stereo not drawn) came out at 95 % of control

Just so you know, measured T/C for CC12CCCCC1CC/C(=C\c1ccco1)C2=O (stereo not drawn) came out at 100 % of control

Further cases:
Just so you know, measured T/C for C(=C1/CC2CCC1C2)/c1ccccc1 (stereo not drawn) came out at 89 % of control

Just so you know, measured T/C for CCOc1ccc(=O)[nH]n1 came out at 115 % of control

Just so you know, measured T/C for CC(C)C(C(=O)O)(c1ccccc1)c1ccccc1 came out at 97 % of control

Just so you know, measured T/C for Clc1nnc(Nc2ccccc2)c2ccccc12 came out at 91 % of control

Just so you know, measured T/C for C#CCOCC1CN(C)C(=O)O1 (stereo not drawn) came out at 92 % of control

Just so you know, measured T/C for CN(C)c1cc(F)c(C=O)cc1[N+](=O)[O-] came out at 98 % of control

Just so you know, measured T/C for O=C(O)Cc1cccnc1 came out at 95 % of control

Just so you know, measured T/C for Cn1cnc(C(N)=S)c1N came out at 105 % of control

Just so you know, measured T/C for Clc1cc[n+](-c2ccncc2)cc1 came out at 88 % of control

Just so you know, measured T/C for CCN(CC)C(=O)Cn1ccc(NC(C)=O)nc1=O came out at 111 % of control
